experiment: A CellTox Green Cytotoxicity Assay to monitor cytotoxicity in HEK293 cells - 24 hour (AID 1224875); conditions: CellTox Green fluorescence; series mostly up to 76.8 µM; note: nearly all actives have a fitted effect of over 45% in size
Results filed as inconclusive are left out. Calls of active or inactive are those of the source. Calls come from the whole dose curve; as a rule, active = well fitted activation curve with a large enough effect in the repeat runs; inconclusive = weak or mixed curves; inactive = flat fitted curve, though single readings scatter.
Bench note: report the call from 1 (yes) = active, 0 (no) = inactive

INSERT INTO assay_data (compound, discrete_label) VALUES
  ('COc1ccc(CN(CCN(C)C)c2ccccn2)cc1', '0 (no)'),
  ('Nc1ccc2c(c1)CN1C(=O)c3ccccc3C1=N2', '1 (yes)'),
  ('CNNCc1ccc(C(=O)NC(C)C)cc1', '0 (no)'),
  ('Cc1cc(=O)oc2cc(O)ccc12', '0 (no)'),
  ('Cc1cn([C@H]2C=C[C@@H](CO)O2)c(=O)[nH]c1=O', '0 (no)'),
  ('CN(N=O)C(=O)N[C@@H]1[C@@H](O)[C@H](O)[C@@H](CO)O[C@@H]1O', '0 (no)'),
  ('COc1ccc(C(Cl)=C(c2ccc(OC)cc2)c2ccc(OC)cc2)cc1', '0 (no)'),
  ('Nc1ccc(S(N)(=O)=O)cc1', '0 (no)');

Exam item: Fill in: this test's call for `Cc1ncc([N+](=O)[O-])n1CCO` is ___
Marked response: 0 (no)

Exam item: Query: recorded result category for `C/C=C/C=C/C(=O)O` in this test
Marked response: 0 (no)

Exam item: What did this assay record as the result for `O=c1[nH]cc(F)c(=O)[nH]1` ?
Marked response: 0 (no)

Exam item: Dear all, I need the recorded test outcome for `CC(=O)C(=O)O` , thank you.
Marked response: 0 (no)
